Origin of the recorded values: ChEMBL document CHEMBL4296182

# Test system: Acinetobacter baumannii
# ASSAY_PROCEDURE: Antibacterial activity against Acinetobacter baumannii ATCC 19606 (CO-ADD:GN_034); MIC in CAMBH media using NBS plates, by Resazurin F(560/590)
# Format: functional
# EXPERIMENTAL_CONDITIONS: Concentration 20 uM, ASSAY_TEST Inhibition of Bacterial Growth, detection method Resazurin, Fluorescence (ex560/em590), MEDIA CAMHB, plate type 384well, CORNING #3640, time 18 hr

COMPOUND | Inhibition
Cc1ccccc1NC(=O)Oc1cccc(OC(=O)c2ccccc2)c1 | 5.34%
CC(C)CC(NC=O)C(=O)O.COc1cc2c(cc1OC)C13CCN4CC5=CCOC6CC(=O)N2C1C6C5CC43 (configuration not stated) | -2.08%
CN1CCC2(O)OCCCC2C1 (configuration not stated) | -13.99%
CN1C2c3ccccc3C3C4c5ccccc5C(C31)C(C2[N+](=O)[O-])N4C (configuration not stated) | 4.34%
Cc1c(C(=O)c2ccccc2)c2ccccc2n1C | -0.59%
C=CCN1CC[C@]23c4c5ccc(O)c4O[C@H]2C(=O)CC[C@@]3(O)[C@H]1C5 | -13%
CC(=O)Nc1ccc([As](=O)(O)c2ccc([N+](=O)[O-])cc2)cc1 | 8.34%
CCN1CCc2ccccc2C1 | -13.05%
O=C1CCCN1CC#CCN1CCCC1 | 7.42%
CCC(CO)NC(=O)C1C=C2c3cccc4[nH]cc(c34)CC2N(C)C1 (configuration not stated) | 14.09%
COc1cccc2c1C(=O)c1c(O)c3c(c(O)c1C2=O)C[C@@](O)(/C(C)=N\O)C[C@@H]3OC1CC(N)C(O)C(C)O1.Cl (some centres not stated) | -1.97%
OCC1CN1C1CCCCC1 (configuration not stated) | -14.33%
COc1ccc2c(c1O)[C@]13CCN(C)[C@H](C2)[C@@H]1CCC(=O)C3 | -13.17%
O=c1cccc2n1C[C@H]1C[C@@H]2CN2CCCC[C@@H]12 | -12.51%
NN=C1C(Cl)=C(Cl)C(Cl)=C1Cl | -7.11%
Cc1nc(C)c(C(=O)N/N=C/c2ccc(N(CCCl)CCCl)cc2)s1 | 12.95%
O=C1CN=C(c2ccc[nH]2)c2cc(Cl)ccc2N1 | 14.08%
COc1ccc(CCNC2(C#N)CCCCC2)cc1OC | -11.77%
O=C(Nc1ccc(F)cc1)Oc1cccnc1O | 2.12%
N#CC(C#N)=Cc1ccc(C=C(C#N)C#N)cc1 | -13.9%
C[C@H]1[C@H](C)N1CC(O)Cn1ccnc1[N+](=O)[O-] (some centres not stated) | 7.84%
C[C@]12CC[C@@H]3c4ccc(OC(=O)N(CCCl)CCCl)cc4CC[C@H]3[C@@H]1CC[C@@H]2O | -4.55%

* * *

# Tested on: Cryptococcus neoformans
# EXPERIMENTAL_CONDITIONS: Concentration 20 uM; ASSAY_TEST Inhibition of Fungal Growth; detection method Resazurin; Absorption (OD600-OD570); plate type 384well; NBS; CORNING #3640
# Description: Antifungal activity against Cryptococcus neoformans H99 ATCC 208821 (CO-ADD:FG_002); MIC in YNB media using NBS plates, by Resazurin OD(600-570)
Measured potencies and affinities stand elsewhere.
This section presents compounds with their documented Inhibition values.
MEASURED_ATTRIBUTE: Inhibition (%)

COMPOUND | SYSTEM_UNDER_TEST | ENDPOINT_RESULT
CC(Cc1ccccc1)NC(N)=O (configuration not stated) | Cryptococcus neoformans | -7.14
c1cc(C2N3CCCN2CC3)ccn1 (configuration not stated) | Cryptococcus neoformans | -3.06
CC1(C)NC(=S)C(C)(C)N1N=O | Cryptococcus neoformans | -2.68
CC(C)CC(NC=O)C(=O)O.COc1cc2c(cc1OC)C13CCN4CC5=CCOC6CC(=O)N2C1C6C5CC43 (configuration not stated) | Cryptococcus neoformans | -3.45
CC(=O)Nc1cccc([As](=O)(c2cccc(NC(C)=O)c2)c2cccc(NC(C)=O)c2)c1 | Cryptococcus neoformans | -8.79
CC(=O)OC1CCC2(C)C(CCC3C2CC(=O)C2(C)C3CC(N3CC3)C2C(C)=O)C1 (configuration not stated) | Cryptococcus neoformans | -1.15
C[C@H]1CC[C@H]2NCCN[C@H]2C1 | Cryptococcus neoformans | -10.77
Cc1ccc(N2C(=O)C(=CN)C(=O)N(c3ccc(C)cc3)C2=O)cc1 | Cryptococcus neoformans | -7.68
O=C1N(c2nncs2)CCN1[N+](=O)[O-] | Cryptococcus neoformans | -14.15
COc1ccc2c(c1)C13CCN(C)C(C2)C1CCC1(C3)OCCO1 (configuration not stated) | Cryptococcus neoformans | -7.98
O=C(Oc1ccccc1)N(c1ccccc1)c1ccccc1 | Cryptococcus neoformans | -11.03
O=c1cccc2n1C[C@H]1C[C@@H]2CN2CCCC[C@@H]12 | Cryptococcus neoformans | -3.93
CC[C@@]1(O)C(=O)OCc2c1cc1n(c2=O)Cc2cc3c(N)cccc3nc2-1 | Cryptococcus neoformans | -6.8
COc1ccc(C2=CC(c3ccc(OC)c(OC)c3)c3c(c4ccccc4oc3=O)O2)cc1OC (configuration not stated) | Cryptococcus neoformans | -11.5
C=CCCC1(C2=CCCCC2)C(=O)NC(=O)NC1=O | Cryptococcus neoformans | -8.53
O=C1NC(=O)C(=Cc2ccc3ccccc3c2)C(=O)N1 | Cryptococcus neoformans | -7.82
COc1ccc2c(c1O)[C@]13CCN(C)[C@H](C2)[C@@H]1CCC(=O)C3 | Cryptococcus neoformans | -12.71
O=S(=O)(F)c1ccc2nc(-c3cccc(Sc4ccccc4)c3)cc(Cl)c2c1 | Cryptococcus neoformans | -2.04
O=C1NC(=O)C(=Cc2csc3ccccc23)C(=O)N1 | Cryptococcus neoformans | -17.03
C[C@H]1CC[C@@]2(C)[C@@H](CC[C@@H]3[C@@H]2CC[C@]2(C)[C@@H](O)CC[C@@H]32)C1 | Cryptococcus neoformans | -1.26
N#CC12CNCC1CN=N2 (configuration not stated) | Cryptococcus neoformans | 19.07
CC(=O)O.CCC(N)Cc1c[nH]c2ccccc12 (configuration not stated) [ETRYPTAMINE ACETATE] | Cryptococcus neoformans | -7.72

* * *

# Tested on: Escherichia coli
# ASSAY_PROCEDURE: Antibacterial activity against Escherichia coli ATCC 25922 (CO-ADD:GN_001); MIC in CAMBH media using NBS plates, by Resazurin F(560/590)
# Type: functional
# EXPERIMENTAL_CONDITIONS: Concentration 20 uM, ASSAY_TEST Inhibition of Bacterial Growth, detection method Resazurin, Fluorescence (ex560/em590), MEDIA CAMHB, plate type 384well, CORNING #3640, time 18 hr
This section presents compounds with their documented Inhibition values.
MEASURED_ATTRIBUTE: Inhibition

COMPOUND | SYSTEM_UNDER_TEST | ENDPOINT_RESULT
CC(CC(C#N)(c1ccccc1)c1ccccc1)N1CCCCC1 (stereo unspecified) | Escherichia coli | -18.71%
O=[N+]([O-])c1cc([As](=O)(O)c2ccc(O)c([N+](=O)[O-])c2)ccc1O | Escherichia coli | 4.17%
Cc1c(CCN)ccc2c1[nH]c1ccccc12 | Escherichia coli | 0.87%
C[C@]12CC[C@@H]3c4ccc(OC(=O)N(CCCl)CCCl)cc4CC[C@H]3[C@@H]1CC[C@@H]2O | Escherichia coli | -3.6%
CC(C)NC1C2CCC(CC2)C1(O)c1ccc(Cl)c(Cl)c1.CS(=O)(=O)O (stereo unspecified) | Escherichia coli | 14.13%
NC=C1C(=O)N(c2ccccc2)C(=O)N(c2ccccc2)C1=O | Escherichia coli | 6.01%
CN1CCN(c2nc(N)cc(O)n2)CC1 | Escherichia coli | 3.5%
O=c1nc(C(F)(F)C(F)(F)C(F)(F)F)[nH]o1 | Escherichia coli | -1.78%
C(=C\c1ccncc1)/c1ccncc1 | Escherichia coli | 7.13%
CC12CCC3C(CCC4Cc5[nH]c6ccccc6c5CC43C)C1CCC2O (stereo unspecified) | Escherichia coli | 16.15%
COc1ccccc1[As](=O)(O)CC(O)COc1ccc(Cl)cc1Cl (stereo unspecified) | Escherichia coli | 17.37%

* * *

# System: Staphylococcus aureus
# ASSAY_PROCEDURE: Antibacterial activity against Staphylococcus aureus MRSA ATCC 43300 (CO-ADD:GP_020); MIC in CAMBH media using NBS plates, by Resazurin F(560/590)
# Assay type: functional
# EXPERIMENTAL_CONDITIONS: Concentration 20 uM, ASSAY_TEST Inhibition of Bacterial Growth, detection method Resazurin, Fluorescence (ex560/em590), MEDIA CAMHB, plate type 384well, CORNING #3640, time 18 hr
MEASURED_ATTRIBUTE: Inhibition (%)

MOLECULE | ENDPOINT_RESULT
C=CCNC(=S)Nc1ccc(OC(=O)Nc2ccc(Cl)c(Cl)c2)cc1 | 9.35
O=C1N(c2nncs2)CCN1[N+](=O)[O-] | 11.64
CC12CCC3C(CCC4Cc5[nH]c6ccccc6c5CC43C)C1CCC2O (centres undefined) | -0.19
COc1cc(OC)cc(C2(C#N)CCN(C)CC2)c1 | 3.06
CSc1nc(=O)c(/N=N/c2ccc([As](=O)(O)O)cc2)c(N)[nH]1 | -2.85
CN1CCC(c2c[nH]c3ccccc23)C1 (centres undefined) | 10.13
O=C(Nc1ccc(F)cc1)Oc1cccnc1O | 10.32
Cc1ccc2cc3c(ccc4ccccc43)c3c2c1CC3 | 32.91
COc1cc(C=C2C(=O)NC(=O)NC2=O)ccc1O | 11.9
N#CC(C#N)=Cc1ccc(C=C(C#N)C#N)cc1 | -4.05
NC(=O)c1ccc(C(=O)Nc2ccc([As](=O)(O)O)cc2)cc1 | 11.66
O=C(CF)N(O)c1ccc(/C=C/c2ccccc2)cc1 | -10.86
CC(=O)Nc1cc([As](=O)(O)O)ccc1O | 12.71
COc1ccc(C2=CC(c3ccc(OC)c(OC)c3)c3c(c4ccccc4oc3=O)O2)cc1OC (centres undefined) | 20.66
COc1c(OP2(=S)OCC(C)(C)CO2)cnn(C2CCCCC2)c1=O | 22.66
Cc1ccc2c(c1)Oc1ccccc1N=C2 | 14.17
c1cnc2c(c1)ccc1ncccc12 | 9.5
C=CCN1CC[C@]23c4c5ccc(O)c4O[C@H]2C(=O)CC[C@@]3(O)[C@H]1C5 | 11.42
O=P(Oc1ccccc1)(Oc1ccccc1)c1ccccc1 | 1.14
O=C1NC(=O)C(=Cc2csc3ccccc23)C(=O)N1 | -1.57
Cc1ccccc1-n1c(/C=C\c2ccccn2)nc2ccccc2c1=O | -4.95
Cc1cc(OCCN2CC2)c2ccccc2n1 | 14.36
O=C(NCCCN1CC1)Nc1cccc2ccccc12 | -3.04
CS(=O)(=O)O.O=C1CCC2(O)[C@@H]3Cc4ccc(O)c5c4[C@]2(CCN3Cc2ccoc2)C1O5 (some centres undefined) | 1.32
